As shown below, each of these compounds has a reported ΔTm at 1000 µM value.
# tested.on: LdtMt2 (Mycobacterium tuberculosis)
# Sequence (I6Y9J2 56-408): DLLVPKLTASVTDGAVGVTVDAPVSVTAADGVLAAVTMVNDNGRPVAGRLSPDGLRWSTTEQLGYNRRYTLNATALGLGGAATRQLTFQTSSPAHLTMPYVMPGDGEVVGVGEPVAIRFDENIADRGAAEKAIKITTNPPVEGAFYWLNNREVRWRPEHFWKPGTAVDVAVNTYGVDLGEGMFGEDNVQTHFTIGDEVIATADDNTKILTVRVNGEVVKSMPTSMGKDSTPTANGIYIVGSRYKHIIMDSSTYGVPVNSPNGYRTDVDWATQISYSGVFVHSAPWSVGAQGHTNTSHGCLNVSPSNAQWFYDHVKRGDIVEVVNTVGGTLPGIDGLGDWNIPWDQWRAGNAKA
# procedure.text: biochemical
# Assay type: binding
# particulars: pH 7.5, read-out: Shift in melting temperature compared to unmodified LdtMt2, 1 mM
*1 amine or outer side, *2 acyl side, *3 side chain or, on linkers, in order; H or OH if unused. Where a SMILES comes first, the peptide text is derived from it. [ ]: non-standard residue; d: D form. d(γGlu) = O=C(O)[C@@H](CCC(=O)[*:2])N[*:1]
Form entry: value (°C) — number only.

Use these answered entries as a reference point.
>>> result_number("N[C@H](CCC[C@H](NC(=O)CC[C@@H](N)C(=O)O)C(=O)O)C(=O)O [Compound 13, D-γ-Glu-m-DAP, reference compound]")
1.5
>>> result_number("C[C@H](N)C(=O)N[C@H](CCC(=O)N[C@@H](CCC[C@@H](N)C(=O)O)C(=O)O)C(=O)O [Compound 12, reference compound]")
1
>>> result_number("C[C@H](N)C(=O)N[C@H](CCC(=O)N[C@@H](CCCCN)C(=O)N[C@H](C)C(=O)N[C@H](C)C(=O)O)C(=O)O [Compound 8, L-Ala-D-iGlu-L-Lys-D-Ala-D-Ala, reference compound]")
2

Next compound, ΔTm at 1000 µM to be filled in.
Consider the compound shown here: C[C@H](N)C(=O)N[C@H](CCC(=O)N[C@@H](CCCCN)C(=O)N[C@H](C)C(=O)O)C(=O)O [Compound 10, L-Ala-D-iGlu-L-Lys-D-Ala, reference compound] (H-A[d(γGlu)]K[dA]-OH) What is its recorded ΔTm at 1000 µM?
3

* * *

# tested.on: LdtMt2 (Mycobacterium tuberculosis)
# procedure.text: biochemical
# Format: binding
# particulars: pH 7.5, read-out: Shift in melting temperature compared to unmodified LdtMt2, 500 µM
# Description: Differential scanning fluorometric thermal shift assays[32] LdtMt2 (5 µM) was incubated with peptidoglycan fragments (500 µM or 1 mM) in buffer (50 mM tris pH 7.5) for 30 minutes at room temperature, after which time SYPRO Orange (final concentration 6x, according to manufacturer’s definition, Invitrogen) was added. Melting temperatures […] See Methods for experimental details. Table S1. […] The melting
*1 amine or outer side, *2 acyl side, *3 side chain or, on linkers, in order; H or OH if unused. Where a SMILES comes first, the peptide text is derived from it. [ ]: non-standard residue; d: D form. d(γGlu) = O=C(O)[C@@H](CCC(=O)[*:2])N[*:1]
metric.name: ΔTm at 500 µM (°C)
Express the result in °C but write the number alone.

As a guide, the following entries are already answered.
>>> result_number("C[C@H](N)C(=O)N[C@H](CCC(=O)N[C@@H](CCC[C@@H](N)C(=O)O)C(=O)O)C(=O)O [Compound 12, reference compound]")
0.5
>>> result_number("N[C@H](CCC[C@H](NC(=O)CC[C@@H](N)C(=O)O)C(=O)O)C(=O)O [Compound 13, D-γ-Glu-m-DAP, reference compound]")
1
>>> result_number("C[C@H](N)C(=O)N[C@H](CCC(=O)N[C@@H](CCCCN)C(=O)N[C@H](C)C(=O)O)C(=O)O [Compound 10, L-Ala-D-iGlu-L-Lys-D-Ala, reference compound] (H-A[d(γGlu)]K[dA]-OH)")
1.5

Then this compound:
So what does the record say about ΔTm at 500 µM for C[C@H](N)C(=O)N[C@H](CCC(=O)N[C@@H](CCCCN)C(=O)N[C@H](C)C(=O)N[C@H](C)C(=O)O)C(=O)O [Compound 8, L-Ala-D-iGlu-L-Lys-D-Ala-D-Ala, reference compound] ?
1.5
